Recorded values, source patent US20090221603A1.

Listed here are molecules together with their documented IC50.
Target: rat brain N-type calcium channel subunits (α1B+α2δ+β1b cDNA subunits) (Rattus norvegicus, UniProt Q02294)
Construct: expressed in transfected cells; host or cells: HEK 293 (stably, alternatively transiently, transfected)
Sequence (Q02294 whole entry): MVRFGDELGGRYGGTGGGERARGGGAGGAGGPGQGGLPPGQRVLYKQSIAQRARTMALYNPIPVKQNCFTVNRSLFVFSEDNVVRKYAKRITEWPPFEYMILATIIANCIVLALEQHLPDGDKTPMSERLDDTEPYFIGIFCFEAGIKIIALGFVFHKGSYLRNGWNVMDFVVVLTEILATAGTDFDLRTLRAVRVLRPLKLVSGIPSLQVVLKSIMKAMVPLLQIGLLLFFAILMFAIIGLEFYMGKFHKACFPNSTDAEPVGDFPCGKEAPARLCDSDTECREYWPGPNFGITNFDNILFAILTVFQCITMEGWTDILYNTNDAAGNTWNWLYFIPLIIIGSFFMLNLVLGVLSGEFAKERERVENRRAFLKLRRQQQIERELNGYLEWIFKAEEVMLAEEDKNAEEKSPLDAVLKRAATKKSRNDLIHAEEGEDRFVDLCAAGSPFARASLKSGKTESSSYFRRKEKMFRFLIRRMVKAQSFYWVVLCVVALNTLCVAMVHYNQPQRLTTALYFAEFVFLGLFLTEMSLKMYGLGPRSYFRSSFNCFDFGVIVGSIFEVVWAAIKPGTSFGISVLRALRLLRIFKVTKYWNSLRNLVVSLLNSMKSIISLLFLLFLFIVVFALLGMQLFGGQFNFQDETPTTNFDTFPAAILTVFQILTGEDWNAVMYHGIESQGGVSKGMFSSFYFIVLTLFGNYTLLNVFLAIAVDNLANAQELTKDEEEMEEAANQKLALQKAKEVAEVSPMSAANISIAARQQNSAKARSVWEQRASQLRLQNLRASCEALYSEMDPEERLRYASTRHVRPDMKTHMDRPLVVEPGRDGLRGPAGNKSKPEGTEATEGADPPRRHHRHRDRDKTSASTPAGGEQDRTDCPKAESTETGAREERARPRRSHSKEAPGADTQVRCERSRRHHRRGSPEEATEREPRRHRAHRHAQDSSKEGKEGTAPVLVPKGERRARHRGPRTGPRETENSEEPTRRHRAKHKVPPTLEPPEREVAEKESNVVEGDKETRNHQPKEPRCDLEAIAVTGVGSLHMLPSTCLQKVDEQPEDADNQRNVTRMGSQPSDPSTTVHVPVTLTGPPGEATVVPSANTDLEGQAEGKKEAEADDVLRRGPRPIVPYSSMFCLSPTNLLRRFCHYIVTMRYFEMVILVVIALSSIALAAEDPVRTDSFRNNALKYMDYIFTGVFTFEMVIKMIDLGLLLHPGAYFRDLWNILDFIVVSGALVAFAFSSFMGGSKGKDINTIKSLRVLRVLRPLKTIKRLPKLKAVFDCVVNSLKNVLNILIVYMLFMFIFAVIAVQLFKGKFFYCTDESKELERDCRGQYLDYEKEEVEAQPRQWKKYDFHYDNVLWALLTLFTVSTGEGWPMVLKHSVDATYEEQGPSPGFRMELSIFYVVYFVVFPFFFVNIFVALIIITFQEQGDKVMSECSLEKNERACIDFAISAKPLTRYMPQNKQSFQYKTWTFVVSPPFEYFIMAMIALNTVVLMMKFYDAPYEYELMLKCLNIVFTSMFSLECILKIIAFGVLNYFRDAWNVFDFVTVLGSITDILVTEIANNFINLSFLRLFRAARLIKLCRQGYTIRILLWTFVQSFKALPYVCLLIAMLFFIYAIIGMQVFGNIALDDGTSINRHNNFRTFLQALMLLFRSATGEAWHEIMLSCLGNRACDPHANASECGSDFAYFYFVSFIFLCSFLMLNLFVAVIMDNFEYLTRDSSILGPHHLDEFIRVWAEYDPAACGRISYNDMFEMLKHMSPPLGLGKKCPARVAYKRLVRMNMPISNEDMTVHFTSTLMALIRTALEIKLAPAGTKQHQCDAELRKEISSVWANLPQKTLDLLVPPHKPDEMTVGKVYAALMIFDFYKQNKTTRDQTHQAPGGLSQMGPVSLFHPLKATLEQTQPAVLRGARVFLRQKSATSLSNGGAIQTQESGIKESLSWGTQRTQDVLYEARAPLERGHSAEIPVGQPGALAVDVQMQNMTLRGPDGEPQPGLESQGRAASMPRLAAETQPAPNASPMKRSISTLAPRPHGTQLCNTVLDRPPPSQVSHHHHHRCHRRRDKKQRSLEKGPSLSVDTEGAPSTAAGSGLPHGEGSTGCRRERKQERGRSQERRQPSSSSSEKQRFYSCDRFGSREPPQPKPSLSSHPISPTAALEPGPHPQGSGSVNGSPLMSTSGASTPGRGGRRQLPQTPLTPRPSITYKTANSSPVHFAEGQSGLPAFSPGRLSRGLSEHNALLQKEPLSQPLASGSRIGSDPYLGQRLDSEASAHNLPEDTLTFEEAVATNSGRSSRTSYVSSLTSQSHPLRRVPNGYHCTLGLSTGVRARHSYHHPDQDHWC
Sequence (P54290 25-944 partner limits assumed): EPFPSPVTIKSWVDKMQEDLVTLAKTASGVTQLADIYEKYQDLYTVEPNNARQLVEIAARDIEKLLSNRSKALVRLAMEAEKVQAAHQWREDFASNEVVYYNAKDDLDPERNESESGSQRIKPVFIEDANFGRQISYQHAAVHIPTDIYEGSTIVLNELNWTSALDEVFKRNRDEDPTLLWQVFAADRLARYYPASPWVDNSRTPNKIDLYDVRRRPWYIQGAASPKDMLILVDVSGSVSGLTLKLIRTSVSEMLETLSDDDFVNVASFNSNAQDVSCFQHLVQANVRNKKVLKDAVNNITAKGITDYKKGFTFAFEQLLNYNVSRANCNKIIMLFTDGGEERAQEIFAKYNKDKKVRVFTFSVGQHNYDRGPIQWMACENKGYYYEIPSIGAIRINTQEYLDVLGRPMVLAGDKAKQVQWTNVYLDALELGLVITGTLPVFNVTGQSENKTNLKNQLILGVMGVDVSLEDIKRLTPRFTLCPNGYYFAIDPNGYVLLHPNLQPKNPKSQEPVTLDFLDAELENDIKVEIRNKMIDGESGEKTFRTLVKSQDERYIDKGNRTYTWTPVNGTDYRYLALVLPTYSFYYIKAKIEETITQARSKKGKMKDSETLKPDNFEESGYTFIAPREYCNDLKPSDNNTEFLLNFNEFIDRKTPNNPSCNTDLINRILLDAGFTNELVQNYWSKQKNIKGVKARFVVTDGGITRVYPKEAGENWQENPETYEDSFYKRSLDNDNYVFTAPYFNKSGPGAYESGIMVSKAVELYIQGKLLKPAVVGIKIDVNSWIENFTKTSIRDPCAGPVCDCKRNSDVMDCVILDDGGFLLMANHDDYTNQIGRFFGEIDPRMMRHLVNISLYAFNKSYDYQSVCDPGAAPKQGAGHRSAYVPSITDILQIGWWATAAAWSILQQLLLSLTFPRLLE
Sequence (P54290 945-1091 partner limits assumed): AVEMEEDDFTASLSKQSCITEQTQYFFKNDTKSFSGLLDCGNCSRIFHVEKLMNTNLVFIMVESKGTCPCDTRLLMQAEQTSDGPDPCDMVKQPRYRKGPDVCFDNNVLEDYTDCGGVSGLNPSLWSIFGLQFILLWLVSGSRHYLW
Sequence (P54283 whole entry partner): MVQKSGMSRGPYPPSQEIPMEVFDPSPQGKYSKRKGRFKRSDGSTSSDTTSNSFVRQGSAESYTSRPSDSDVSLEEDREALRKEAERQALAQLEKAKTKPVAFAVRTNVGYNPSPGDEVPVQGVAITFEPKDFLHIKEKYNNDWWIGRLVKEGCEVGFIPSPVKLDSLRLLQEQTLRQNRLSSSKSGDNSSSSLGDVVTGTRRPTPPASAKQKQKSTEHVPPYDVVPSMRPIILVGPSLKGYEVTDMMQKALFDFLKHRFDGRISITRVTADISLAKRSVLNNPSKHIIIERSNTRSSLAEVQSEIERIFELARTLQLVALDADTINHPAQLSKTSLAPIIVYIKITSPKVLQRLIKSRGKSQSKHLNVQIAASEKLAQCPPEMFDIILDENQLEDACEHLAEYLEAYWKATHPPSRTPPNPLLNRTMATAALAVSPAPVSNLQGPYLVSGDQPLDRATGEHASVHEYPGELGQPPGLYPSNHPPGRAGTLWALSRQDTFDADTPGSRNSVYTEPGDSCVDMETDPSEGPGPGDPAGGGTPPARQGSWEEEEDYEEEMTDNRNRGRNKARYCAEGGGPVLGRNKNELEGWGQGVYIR
Assay: N-type calcium channel block, whole cell patch clamp in HEK 293 cells
Type: cell-based
Conditions: low frequency stimulation 0.067 Hz (tonic block); holding potential −80 mV to +10 mV; read-out: IC50 @ 0.067 Hz
The reply should be a number in nM, with the unit left off.

Take a look at these entries with their results.
MOLECULE | READOUT_UNITS | IC50
O=C(COc1ccc(Cl)cc1Cl)N1CCN(C(c2ccccc2)c2ccccc2)CC1 [Compound 26] | nM | 250
COCC1CN(C(=O)CNC(c2ccccc2)c2ccccc2)CCN1C(c1ccccc1)c1ccccc1 (stereo not shown) [Compound 53] | nM | 250
CC1CN(CC2CCOCC2)CC(C)N1C(=O)COC(c1ccccc1)c1ccccc1 (stereo not shown) [Compound 32] | nM | 1000
O=C(C[S+]([O-])C(c1ccccc1)c1ccccc1)N1CCN(C(c2ccccc2)c2ccccc2)CC1 (stereo not shown) [Compound 45] | nM | 290
CN1CCC(CN2CCN(C(=O)CNC(c3ccccc3)c3ccccc3)CC2)CC1 [Compound 9] | nM | 4000

## Task Provide only the value of recorded IC50 for O=C(C[S+]([O-])C(c1ccccc1)c1ccccc1)N1CCN(C(c2ccccc2)c2ccccc2)C(CO)C1 (stereo not shown) [Compound 52]
## Result 1230

## Task Find the measured IC50 of CN1CCC(C(c2ccccc2)N2CCN(C(=O)CN(C)C(c3ccccc3)c3ccccc3)CC2)CC1 (stereo not shown) [Compound 14] and report it.
## Result 550

## Task Give me measured IC50, please, for this molecule: CN1CCC(CN2CCN(C(=O)CN(C)C(c3ccccc3)c3ccccc3)CC2)CC1 [Compound 12]
## Result 7400

## Task Given the molecule O=C(COC(c1ccccc1)c1ccccc1)N1CCN(C(c2ccc(F)cc2)c2ccc(F)cc2)CC1 [Compound 46] , write its reported IC50.
## Result 920
